These measurements were taken from ChEMBL document CHEMBL4130363.

target.or.system: 5-hydroxytryptamine receptor 1B (Homo sapiens) (UniProt P28222)
Sequence (P28222 whole entry): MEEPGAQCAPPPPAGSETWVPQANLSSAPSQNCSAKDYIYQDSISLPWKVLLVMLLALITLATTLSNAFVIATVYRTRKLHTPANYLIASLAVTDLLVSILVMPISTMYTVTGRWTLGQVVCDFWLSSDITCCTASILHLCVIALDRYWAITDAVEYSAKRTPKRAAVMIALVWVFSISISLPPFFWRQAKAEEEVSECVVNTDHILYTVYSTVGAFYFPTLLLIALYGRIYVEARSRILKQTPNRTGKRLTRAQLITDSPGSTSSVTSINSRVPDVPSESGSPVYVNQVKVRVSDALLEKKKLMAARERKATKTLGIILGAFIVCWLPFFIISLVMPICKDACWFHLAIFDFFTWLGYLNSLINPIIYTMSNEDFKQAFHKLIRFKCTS
assay.method.text: Agonist activity at recombinant human 5-HT1B at 10 uM by GTPgamma[35S] binding-based assay relative to agonist
Format: functional
experimental.endpoint: Activity (%)
Please give a number only; it is taken to be in %.

CCCc1ccc(C(=O)NCCCN(C)Cc2ccccc2)cc1 55
CN(CCNC(=O)c1ccc(Cl)cc1)Cc1ccccc1 4
COc1cccc(C(=O)NCCCN(C)Cc2ccccc2)c1 -12
CN(CCNC(=O)c1ccc([N+](=O)[O-])cc1)Cc1ccccc1 -10
CN(CCCNC(=O)c1ccc(Cl)cc1)Cc1ccccc1 7

What value of Activity has been reported for the following compound? `CN(CCCNC(=O)c1cccc(Br)c1)Cc1ccccc1`
1

----------
Tested on: S1R (sigma-1 receptor)
assay.method.text: Selectivity index, ratio of IC50 for human SH-SY5Y cells to Ki for S1R in human Jurkat cell membranes
Type: toxicity, cell-based
Property: selectivity ratio; scope: individual molecules

The examples below pair each entry with its known result.
CN(CCCNC(=O)c1ccc(Cl)cc1)Cc1ccccc1 > 31200
CN(CCCNC(=O)c1ccc(Br)cc1F)Cc1ccccc1 > 34500
CN(CCCNC(=O)c1ccc(F)cc1)Cc1ccccc1 > 5000
CN(CCCNC(=O)c1cccc(Br)c1)Cc1ccccc1 > 25600
CN(CCCNC(=O)c1cccc(Cl)c1)Cc1ccccc1 > 10000
CN(CCNC(=O)c1ccc([N+](=O)[O-])cc1)Cc1ccccc1 > 27800
CN(CCNC(=O)c1ccc(C#N)cc1)Cc1ccccc1 > 83300
CN(CCCNC(=O)c1ccc(Cl)cc1)CCc1ccccc1 > 23300
O=C(NCCCN1Cc2ccccc2C1)c1ccc(Cl)cc1 > 5260
CN(CCNC(=O)c1cccc(Cl)c1Cl)Cc1ccccc1 > 15400

selectivity ratio for `CN(CCCNC(=O)c1cc(Cl)cc(Cl)c1)Cc1ccccc1` ?
2610

Likewise for `CN(CCNC(=O)c1ccc(Cl)cc1)Cc1ccccc1` ?
> 27800

----------
assay.method.text: Aqueous solubility of the compound in PBS buffer at pH 7.8
Format: physicochemical
experimental.endpoint: solubility (µM)
Numbers only; they are read as µM.

Consider the compound `CN(CCCNC(=O)c1ccc(Cl)cc1)Cc1ccccc1` and give its measured solubility.
173

----------
target.or.system: Beta-1 adrenergic receptor (Homo sapiens)
assay.method.text: Agonist activity at recombinant human beta-1 adrenergic receptor assessed as induction of cAMP levels at 10 uM by HTRF assay relative to agonist
Type: functional
The entries below come with measured Activity values attached.
Reply numerically in %, unit not repeated.

These solved cases illustrate the format of a correct answer.
CN(CCCNC(=O)c1ccc(Cl)cc1)Cc1ccccc1 4
CN(CCNC(=O)c1ccc(Cl)cc1)Cc1ccccc1 7
COc1ccc(C(=O)NCCCN(C)Cc2ccccc2)cc1 -12
CN(CCCNC(=O)c1cccc(Br)c1)Cc1ccccc1 10
CN(CCNC(=O)c1ccc([N+](=O)[O-])cc1)Cc1ccccc1 -3
CCCc1ccc(C(=O)NCCCN(C)Cc2ccccc2)cc1 6
CN(CCNC(=O)c1ccc(C#N)cc1)Cc1ccccc1 -5
CN(CCCNC(=O)c1ccc(C(F)(F)F)cc1)Cc1ccccc1 2

Sample `CN(CCCNC(=O)c1ccc(Cl)cc1)CCc1ccccc1` — what was its Activity?
18

Same question, `CN(CCCNC(=O)c1ccc([N+](=O)[O-])cc1)Cc1ccccc1` this time
3

Can you handle `CN(CCCNC(=O)c1ccc(Br)cc1)Cc1ccccc1` next?
2

Please give the result for `COc1cccc(C(=O)NCCCN(C)Cc2ccccc2)c1` too.
-10

----------
Entries annotated with measured Activity
target.or.system: UniProt:P35368
Sequence (P35368 whole entry): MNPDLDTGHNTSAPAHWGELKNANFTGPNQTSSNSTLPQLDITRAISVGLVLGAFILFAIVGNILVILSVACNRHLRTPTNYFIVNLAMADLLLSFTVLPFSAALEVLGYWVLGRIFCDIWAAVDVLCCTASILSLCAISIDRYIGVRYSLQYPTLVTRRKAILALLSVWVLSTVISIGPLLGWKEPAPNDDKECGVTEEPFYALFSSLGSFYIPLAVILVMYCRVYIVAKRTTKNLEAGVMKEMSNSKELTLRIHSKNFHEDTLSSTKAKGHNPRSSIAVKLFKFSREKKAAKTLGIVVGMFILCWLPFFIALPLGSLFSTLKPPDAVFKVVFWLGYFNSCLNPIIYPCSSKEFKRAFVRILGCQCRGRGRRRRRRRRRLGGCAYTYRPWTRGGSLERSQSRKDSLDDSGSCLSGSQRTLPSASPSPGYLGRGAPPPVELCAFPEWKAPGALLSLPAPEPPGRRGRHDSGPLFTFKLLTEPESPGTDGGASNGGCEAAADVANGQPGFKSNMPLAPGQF
assay.method.text: Agonist activity at recombinant human alpha-1b adrenergic receptor […] at 10 uM by aequorin reporter based assay relative to agonist
Assay type: functional
Remember to put the unit after the number in your answer.

Examples with their reported Activity follow.
COc1ccc(C(=O)NCCCN(C)Cc2ccccc2)cc1 0%
CN(CCCNC(=O)c1ccc(Cl)cc1)Cc1ccccc1 0%
CN(CCCNC(=O)c1ccc([N+](=O)[O-])cc1)Cc1ccccc1 -1%

// returns reported Activity for input `CN(CCCNC(=O)c1cccc(Br)c1)Cc1ccccc1`
-1%

Okay, and `CCCc1ccc(C(=O)NCCCN(C)Cc2ccccc2)cc1` ?
-1%

Next compound: `CN(CCNC(=O)c1ccc(C#N)cc1)Cc1ccccc1`
0%

Now consider `CN(CCNC(=O)c1ccc(Cl)cc1)Cc1ccccc1` and answer again.
-1%

Here is the next compound: `CN(CCCNC(=O)c1ccc(Cl)cc1)CCc1ccccc1`
0%

Moving on to `CN(CCNC(=O)c1ccc([N+](=O)[O-])cc1)Cc1ccccc1`
0%

# repeat for `CN(CCCNC(=O)c1ccc(Br)cc1)Cc1ccccc1`
0%

How about this compound: `CN(CCCNC(=O)c1ccc(C(F)(F)F)cc1)Cc1ccccc1`
-1%

Moving on to `COc1cccc(C(=O)NCCCN(C)Cc2ccccc2)c1`
0%

----------
target.or.system: UniProtKB P29274
assay.method.text: Antagonist activity at recombinant human adenosine A2A receptor assessed as inhibition of agonist-induced cAMP induction at 10 uM by HTRF assay
Type: functional
experimental.endpoint: inhibition (%)
Answer with a number only, understood to be in %.

CN(CCCNC(=O)c1ccc([N+](=O)[O-])cc1)Cc1ccccc1 -3
CN(CCCNC(=O)c1ccc(Br)cc1)Cc1ccccc1 -3
CN(CCCNC(=O)c1ccc(C(F)(F)F)cc1)Cc1ccccc1 -1
CN(CCCNC(=O)c1ccc(Cl)cc1)Cc1ccccc1 -4
CN(CCNC(=O)c1ccc(C#N)cc1)Cc1ccccc1 -7

Request the reported inhibition associated with `COc1cccc(C(=O)NCCCN(C)Cc2ccccc2)c1`
-10

Moving on to `COc1ccc(C(=O)NCCCN(C)Cc2ccccc2)cc1`
-7

Quick one: `CN(CCNC(=O)c1ccc([N+](=O)[O-])cc1)Cc1ccccc1`
-5

Now the same for `CN(CCCNC(=O)c1ccc(Cl)cc1)CCc1ccccc1`
-5

Next entry: `CN(CCNC(=O)c1ccc(Cl)cc1)Cc1ccccc1`
-4

How about this compound: `CCCc1ccc(C(=O)NCCCN(C)Cc2ccccc2)cc1`
-3

Lookup `CN(CCCNC(=O)c1cccc(Br)c1)Cc1ccccc1`
-2

----------
Here the recorded inhibition is given for each entry.
target.or.system: Vasoactive intestinal polypeptide receptor 1 (Homo sapiens)
Sequence (whole entry): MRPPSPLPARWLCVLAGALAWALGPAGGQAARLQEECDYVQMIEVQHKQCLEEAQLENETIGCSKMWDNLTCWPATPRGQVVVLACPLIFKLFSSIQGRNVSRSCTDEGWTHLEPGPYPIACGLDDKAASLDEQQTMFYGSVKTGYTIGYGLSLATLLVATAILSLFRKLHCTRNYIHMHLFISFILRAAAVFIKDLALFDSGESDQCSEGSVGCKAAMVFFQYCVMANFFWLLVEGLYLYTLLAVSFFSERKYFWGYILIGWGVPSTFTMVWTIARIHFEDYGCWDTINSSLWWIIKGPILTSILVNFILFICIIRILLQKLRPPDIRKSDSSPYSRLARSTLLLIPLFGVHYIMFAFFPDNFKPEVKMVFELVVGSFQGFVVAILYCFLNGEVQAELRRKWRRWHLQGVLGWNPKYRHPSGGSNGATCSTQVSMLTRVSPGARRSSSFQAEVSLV
assay.method.text: Antagonist activity at recombinant human VPAC1 receptor assessed as inhibition of agonist-induced effect at 10 uM by aequorin reporter based assay
Type: functional
# output: bare number, implied unit %

CN(CCNC(=O)c1ccc([N+](=O)[O-])cc1)Cc1ccccc1 22
CN(CCCNC(=O)c1ccc([N+](=O)[O-])cc1)Cc1ccccc1 0
CN(CCCNC(=O)c1ccc(Br)cc1)Cc1ccccc1 4
CN(CCNC(=O)c1ccc(Cl)cc1)Cc1ccccc1 30
CN(CCCNC(=O)c1ccc(Cl)cc1)Cc1ccccc1 7
CN(CCCNC(=O)c1ccc(C(F)(F)F)cc1)Cc1ccccc1 31
CN(CCCNC(=O)c1ccc(Cl)cc1)CCc1ccccc1 17
COc1cccc(C(=O)NCCCN(C)Cc2ccccc2)c1 1

API: value(readout= inhibition, system= Vasoactive intestinal polypeptide receptor 1 (Homo sapiens), query= `CCCc1ccc(C(=O)NCCCN(C)Cc2ccccc2)cc1` )
0

Try `CN(CCCNC(=O)c1cccc(Br)c1)Cc1ccccc1` next.
31

Entry to check: `CN(CCNC(=O)c1ccc(C#N)cc1)Cc1ccccc1`
3

----------
target.or.system: Adenosine receptor A2a (Homo sapiens) (UniProt P29274)
Sequence (P29274 whole entry): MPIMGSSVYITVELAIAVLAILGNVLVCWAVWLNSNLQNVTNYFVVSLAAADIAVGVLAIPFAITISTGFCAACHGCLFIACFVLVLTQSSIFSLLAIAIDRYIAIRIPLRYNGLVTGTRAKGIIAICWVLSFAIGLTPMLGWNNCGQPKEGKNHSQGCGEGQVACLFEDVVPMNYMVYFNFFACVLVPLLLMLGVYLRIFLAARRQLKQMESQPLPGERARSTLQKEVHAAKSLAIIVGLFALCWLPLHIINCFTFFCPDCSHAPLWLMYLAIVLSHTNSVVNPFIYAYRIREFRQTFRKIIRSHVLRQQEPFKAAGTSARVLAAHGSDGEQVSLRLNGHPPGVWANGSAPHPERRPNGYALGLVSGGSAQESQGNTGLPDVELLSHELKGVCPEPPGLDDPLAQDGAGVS
assay.method.text: Agonist activity at recombinant human adenosine A2A receptor assessed as induction of cAMP levels at 10 uM by HTRF assay relative to agonist
Format: functional
experimental.endpoint: Activity (%)
Please reply with the bare figure in % and do not write the unit itself.

CN(CCCNC(=O)c1cccc(Br)c1)Cc1ccccc1 -25
CN(CCNC(=O)c1ccc([N+](=O)[O-])cc1)Cc1ccccc1 -12
COc1ccc(C(=O)NCCCN(C)Cc2ccccc2)cc1 -13

Give the measured Activity of `CN(CCNC(=O)c1ccc(Cl)cc1)Cc1ccccc1` .
-22

Would you kindly repeat that for `CN(CCCNC(=O)c1ccc(Cl)cc1)Cc1ccccc1` ?
-3

Another compound to check: `CN(CCCNC(=O)c1ccc(Br)cc1)Cc1ccccc1`
-7

Thanks! And `CN(CCNC(=O)c1ccc(C#N)cc1)Cc1ccccc1` ?
-8

Next compound: `COc1cccc(C(=O)NCCCN(C)Cc2ccccc2)c1`
5

Next up: `CN(CCCNC(=O)c1ccc(C(F)(F)F)cc1)Cc1ccccc1`
-22

Another compound to look at: `CN(CCCNC(=O)c1ccc(Cl)cc1)CCc1ccccc1`
-6

Okay, and `CCCc1ccc(C(=O)NCCCN(C)Cc2ccccc2)cc1` ?
-19

Next up: `CN(CCCNC(=O)c1ccc([N+](=O)[O-])cc1)Cc1ccccc1`
-11
